endpoint-label: melting point

Entry under test: Cc1nc2c(O)c(CC[C@@H](O)c3ccc4ccccc4c3)c(C(=O)N(C)C)cc2n1C [Example 10] . Its melting point was 145 to 147 °C

Next:
Entry under test: Cc1ccccc1[C@H](O)CCc1c(C(=O)N(C)C)cc2c(nc(C)n2C)c1O [Example 7] . Its melting point was 139 to 140 °C

Entry under test: Cc1ccccc1[C@@H](O)CCc1c(C(=O)N(C)C)cc2c(nc(C)n2C)c1O [Example 25] . Its melting point was 203 to 205 °C

Entry under test: Cc1nc2c(O)c(CC[C@@H](O)c3cccs3)c(C(=O)N(C)C)cc2n1C [Example 12] . Its melting point was 264 to 265 °C
